Provenance of the data: PubChem BioAssay (NCI)

# System: 786-0 renal
# assay_explanation: NCI-60 one-dose screen, 48 h (100 = growth as untreated, 0 = no growth, -100 = all killed)
# assay_context: 10 µM unless noted
# Experimental: Cells are grown in 96 well plates and exposed to the test compound for 48 hours. Compounds are tested at a single concentration, which is 10^-5 M for most compounds. The reported endpoint is percent growth (GI% or GIPRCNT), where numbers from 0 - 100% represent growth inhibition, and numbers from -100% - 0 represent cell death. For example, a value of 40 represents 60% growth inhibition. A value of 0 means no net growth occurred over the course of the experiment. […]
Compounds without any hit were thinned out: in the full panel of roughly 83,000, 20% have a hit.
# if measured growth < 50%: true (1)  # else: false (0)

compound	study_target	class_label
Clc1ccc(/C=C/c2nc(Nc3ccc(Cl)cc3)c3ccccc3n2)cc1	786-0 renal	false (0)
O=C1NC(=S)S/C1=C\N1N=C(c2ccc(Cl)cc2)CC1c1ccc(F)cc1 (configuration not stated)	786-0 renal	false (0)
CCNCCNc1cc(-c2ccc(Cl)cc2)c(C#N)c2nc3ccccc3n12	786-0 renal	true (1)
Cc1ccc(S(=O)(=O)Nc2sccc2-c2nc(-c3ccccc3)no2)cc1	786-0 renal	false (0)
CCCCN(CCCC)CCCn1c(=O)c2sc3ncccc3c2n2nnc(-c3ccccc3)c12	786-0 renal	false (0)
CC(=O)Nc1ccc2c(c1)Cc1c(F)cccc1-2	786-0 renal	false (0)
O=C(NCCOCCOCCOCCNC(=O)c1cc2c(o1)C(=O)c1ccccc1C2=O)NC12CC3CC(CC(C3)C1)C2	786-0 renal	true (1)
CN(C)c1ccc2cc(-c3ccc(Cl)c(Cl)c3)c(N)nc2c1	786-0 renal	false (0)
O=C(NCOC(O)C(Cl)(Cl)Cl)NCOC(O)C(Cl)(Cl)Cl (configuration not stated)	786-0 renal	false (0)
COC(=O)CCCNC(=O)C(=O)c1c(O)c(O)c(C(C)C)c2cc(C)c(-c3c(C)cc4c(C(C)C)c(O)c(O)c(C(=O)C(=O)NCCCC(=O)OC)c4c3O)c(O)c12	786-0 renal	true (1)
CC1(C)CC(=O)c2c(ccc(C(=O)C[C@H](N)CO)c2N)O1	786-0 renal	false (0)
COC(=O)Nc1nc2ccc(C(=O)C3CC3)cc2[nH]1	786-0 renal	true (1)
CCOC(=O)C1C(=O)C=C(c2cnccn2)CC1c1ccc(OC)c(OC)c1 (configuration not stated)	786-0 renal	false (0)
Cc1c(Cl)cccc1NS(=O)(=O)c1ccccc1	786-0 renal	false (0)
COc1ccc2c(c1)/C(=C\c1sc(=S)[nH]c1O)C(C(=O)O)=N2	786-0 renal	false (0)
c1ccc(-c2oc3ccccc3c2-c2ccccc2)cc1	786-0 renal	false (0)
Cc1ccc(/C(=N\N=C(N)N)c2ccccc2)cc1	786-0 renal	true (1)
Cc1ccc(Nc2ccc(Nc3ccc(C)cc3S(=O)(=O)O)c3c2C(=O)c2ccccc2C3=O)c(S(=O)(=O)O)c1	786-0 renal	false (0)
Oc1[nH]c2ccccc2c1/C=c1/cc2c(c(-c3ccc(F)cc3)n1)=Nc1ccccc1-2	786-0 renal	true (1)
O=C(NCc1cn(Cc2cccc(Oc3ccccc3)c2)nn1)c1cccnc1NCc1ccc(Cl)cc1	786-0 renal	true (1)
CCn1nc(C#Cc2c(C)ccc3c(Nc4ccc(Cl)cc4)nccc23)c2c(N)ncnc21	786-0 renal	true (1)
C=C(CNCCc1ccc(O)cc1)[C@@H]1CC[C@]2(COC3CCCCO3)CC[C@]3(C)[C@H](CC[C@@H]4[C@@]5(C)CCC(NCCO)C(C)(C)[C@@H]5CC[C@]43C)[C@@H]12 (some centres not stated)	786-0 renal	true (1)
CCOC(=O)Cc1csc2nc(-c3ccccc3)nn12	786-0 renal	false (0)
Cn1nnnc1-c1ccc(N)cc1	786-0 renal	false (0)
COc1ccc(-c2c(N)n[nH]c2-c2ccccc2O)cc1OC	786-0 renal	false (0)
COc1ccc2cc(-c3ccc(C(=O)NN)c(C)n3)ccc2c1	786-0 renal	false (0)
